- Assay system: mu opioid receptor (MOR) (Homo sapiens (Human))
- Procedure text: Competitive radioligand binding at MOR ([3H] Naloxone)
pIC50: −log10 of the molar value.

>  <Molecule>
COCCN1CC[C@]23CCCC[C@H]2[C@H]1Cc1ccc(O)cc13 [Compound 113, 3-hydroxy-17-(2-methoxyethyl)morphinan]

>  <pIC50>
8.00 to 10.00

$$$$
>  <Molecule>
COCCOCCNC(=O)c1ccc2c(c1)[C@@]13CCCC[C@H]1[C@@H](C2)N(C)CC3

>  <pIC50>
6.00 to 7.00

$$$$
>  <Molecule>
CN1CC[C@]23CCCC[C@H]2[C@H]1Cc1ccc(Nc2cccnc2)cc13

>  <pIC50>
8.00 to 10.00

$$$$
>  <Molecule>
COCCN1CC[C@]23CCCC[C@H]2[C@H]1Cc1ccc(Nc2ccncc2)cc13

>  <pIC50>
7.00 to 8.00

$$$$

* * *

- Assay system: mu opioid receptor (MOR) (Homo sapiens (Human), UniProt P35372)
- Procedure text: Competitive radioligand binding at MOR ([3H] Naloxone)
- Run parameters: membranes from CHO-K1 cells expressing MOR; 2 nM [3H] Naloxone; reflects free base activity; read-out: MOR IC50
In this section, each of the molecules is paired with its reported IC50.
Parameter: IC50

>  <Chemical smiles>
COc1cccc(C(=O)Nc2ccc3c(c2)[C@@]24CCCC[C@H]2[C@@H](C3)N(C)CC4)c1

>  <Assay system>
mu opioid receptor (MOR) (Homo sapiens (Human), UniProt P35372)

>  <Parameter>
IC50

>  <Value>
> 1000 nM

$$$$
>  <Chemical smiles>
COCCOCCOc1cccc(Nc2ccc3c(c2)[C@@]24CCCC[C@H]2[C@@H](C3)N(C)CC4)c1

>  <Assay system>
mu opioid receptor (MOR) (Homo sapiens (Human), UniProt P35372)

>  <Parameter>
IC50

>  <Value>
0.1 to 10 nM

$$$$
>  <Chemical smiles>
CN1CC[C@]23CCCC[C@H]2[C@H]1Cc1cc2ccc(N)nc2cc13

>  <Assay system>
mu opioid receptor (MOR) (Homo sapiens (Human), UniProt P35372)

>  <Parameter>
IC50

>  <Value>
10 to 100 nM

$$$$
>  <Chemical smiles>
COCCOCCOCCNc1nc2ccc3c(c2s1)[C@@]12CCCC[C@H]1[C@@H](C3)N(C)CC2

>  <Assay system>
mu opioid receptor (MOR) (Homo sapiens (Human), UniProt P35372)

>  <Parameter>
IC50

>  <Value>
> 1000 nM

$$$$
>  <Chemical smiles>
COCCOCCOCCN1CC[C@]23CC(=O)CC[C@H]2[C@H]1Cc1ccc(OC)cc13

>  <Assay system>
mu opioid receptor (MOR) (Homo sapiens (Human), UniProt P35372)

>  <Parameter>
IC50

>  <Value>
> 1000 nM

$$$$
>  <Chemical smiles>
CN1CC[C@]23CCCC[C@H]2[C@H]1Cc1cc2sc(NC(=O)C4CCN(C(=O)OC(C)(C)C)CC4)nc2cc13

>  <Assay system>
mu opioid receptor (MOR) (Homo sapiens (Human), UniProt P35372)

>  <Parameter>
IC50

>  <Value>
> 1000 nM

$$$$
>  <Chemical smiles>
CN1CC[C@]23CCCC[C@H]2[C@H]1Cc1cc(C#N)c(N)cc13

>  <Assay system>
mu opioid receptor (MOR) (Homo sapiens (Human), UniProt P35372)

>  <Parameter>
IC50

>  <Value>
> 1000 nM

$$$$
